experiment: yeast display, Sf9 membrane polyspecificity reagent, FACS + sequencing; frameworks hold sequencing errors

| CONSTRUCT_SEQUENCE | polyreactivity (PSR sort gate) |
| --- | --- |
| QVQLVESGGGLVQAGGSLRLSCAASGSTFFLYAMGWYRQAPGKERELVAAISTTGGSTNYADSVKGRFTISRDNAKNTVYLQMNSLKPEDTAVYYCAAGPSAQSIYDHWGQGTQVTVSS | low polyreactivity |
| QVQLVESGGGLVQAGGSLRLSCAASGRTFCGNVMGWYRQAPGKERELVAAITNGASTNYADSVKGRFTISRDNAKNTVYLQMNSLKPEDTAVYYCAASANNWRRRGRSYEYWGQGTQVTVSS | low polyreactivity |
